Give normalized growth for every item shown.
- assay.name: chemical genetic growth profiling, strain panel (AID 1159580);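 note: tested at 20 µM; growth read once vehicle control cultures reached saturation at 30 °C; 1 = growth at the plate median or of vehicle wells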
- condition.parameters: S. cerevisiae deletion strains, growth OD, locus YPR163C, strain tif3, stronger effect = lower value
The campaign covered roughly 5,500 compounds. About 2,000 (36%) were called active. Roughly 18% stayed inconclusive and do not appear here. The list shows a part of the results.
Keep it simple and answer with nothing but the number.

Q: # query: normalized growth of entry CCOP(=S)(OCC)SCCSCC
Ans: 0.999

Q: Can you share its normalized growth? I mean this compound: Nc1nc(N)c2nc(CNc3ccc(C(=O)NC(CCC(=O)O)C(=O)O)cc3)cnc2n1 (stereo not drawn)
Ans: 1

Q: normalized growth for Nc1nc2ncc(CNc3ccc(C(=O)N[C@@H](CCC(=O)O)C(=O)O)cc3)nc2c(=O)[nH]1 ?
Ans: 0.993

Q: What normalized growth value was documented for this compound, CCOP(=S)(OCC)SCSCC ?
Ans: 1.01

Q: Consider the compound CCOP(=S)(OCC)SCSP(=S)(OCC)OCC and give its measured normalized growth.
Ans: 0.994

Q: // lookup normalized growth for COc1cc2c(cc1O)CC1c3c(cc(O)c(OC)c3-2)CCN1C (stereo not drawn)
Ans: 0.996

Q: Any idea what normalized growth was measured for CC1CC2C(C(O)CC3(C)C2CCC3(O)C(=O)COC(=O)CCC(=O)O)C2(C)C=CC(=O)C=C12 (stereo not drawn) ?
Ans: 0.985

Q: Form field: reported normalized growth of CN(Cc1cnc2nc(N)nc(N)c2n1)c1ccc(C(=O)NC(CCC(=O)O)C(=O)O)cc1 (stereo not drawn)
Ans: 0.985

---

Would you kindly list normalized growth for each of these compounds?
- assay.name: chemical genetic growth profiling, strain panel (AID 1159580);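 note: tested at 20 µM; growth read once vehicle control cultures reached saturation at 30 °C; 1 = growth at the plate median or of vehicle wells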
- condition.parameters: S. cerevisiae deletion strains, growth OD, locus YNR030W, strain Alg12, stronger effect = lower value
Out of some 5,500 compounds screened, about 2,000 (36%) were called active. About 18% were inconclusive and are not listed. Some of the results follow.

Q: Recorded normalized growth for COc1ccc(OC)c(S(=O)(=O)NCc2c(F)cccc2Cl)c1 , please?
Ans: 1.02 (inactive)

Q: # lookup: normalized growth of O=C1NC(c2c(F)cccc2Cl)Nc2ccccc21 (stereo not given)
Ans: 1.02 (inactive)

Q: Any idea what normalized growth was measured for Cc1ccc(CS/C(N)=N\N)cc1 ?
Ans: 0.976 (inactive)

Q: So what's the measured normalized growth for this one? CCOC(=O)CC(=O)Nc1scc(C)c1C(=O)OCC
Ans: 0.924 (inactive)

Q: What value of measured normalized growth is listed for S=c1[nH]c2ccccc2[nH]1 ?
Ans: 1.01 (inactive)

Q: Need normalized growth of CCOC(=O)c1cc(-c2ccc(N)cc2)oc1C , thanks.
Ans: 0.885 (active)

Q: Which normalized growth is listed for c1ccc(CSC2=NCCCN2)cc1 ?
Ans: 1.02 (inactive)

Q: I would be grateful if you could share the reported normalized growth for CC(C)(C)OC(=O)N1CCN(Cc2ccccc2)CC1 .
Ans: 0.992 (inactive)

Q: I have this compound here, CCCCCCCC1CC/C(=C\c2ccc(/C=C3\CCC(CCCCCCC)C3=O)cc2)C1=O (stereo not given) , and I need its recorded normalized growth.
Ans: 1 (inactive)

Q: What measured normalized growth goes with O=C(Nc1cc(C(F)(F)F)cc(C(F)(F)F)c1)C(Sc1ccccn1)c1ccccc1 (stereo not given) ?
Ans: 0.997 (inactive)

Q: Reported normalized growth for O=C1c2cccc3c(SCCO)ccc(c23)C(=O)N1CCc1ccccn1 : what is it?
Ans: 0.989 (inactive)

Q: Need normalized growth, item O=C(CCCCCCCCC(=O)c1ccccc1)c1ccccc1
Ans: 1.01 (inactive)

Q: # lookup: normalized growth of CN(C)c1ccc(/C=N\NC(=O)CCc2ccc(O)cc2)c(Cl)c1
Ans: 1.01 (inactive)

Q: Any idea what its normalized growth is? The compound is COc1ccccc1NC(=O)N1CCCN(C(=O)c2cccs2)CC1
Ans: 1.02 (inactive)

Q: For the compound shown here, Cc1ccc(-n2nc(-c3ccc(OC(F)(F)F)cc3)cc2NC(=O)Nc2ccc(OC(F)(F)F)cc2)cc1C , give the reported normalized growth.
Ans: 1.01 (inactive)
